Tested on: Fibroblast
Assay: Multiplex assay against human fibroblast
Format: toxicity, cell-based
Settings: 48 h, 10 µM, compound concentration 10 uM
Metric Name: Population Hoechst High Intensity Objects (%)
Enter your answer as a number in %; do not include the unit.

Note Population Hoechst High Intensity Objects (%) for the compound shown: `Cl.Cl.N#Cc1ccc(O[C@@H]2c3ccccc3C[C@H]2N2CCC[C@@H](N)C2)c(Cl)c1`
0

Specify measured Population Hoechst High Intensity Objects (%) for `CCCCC(=O)N(Cc1ccc(-c2ccccc2-c2nnn[nH]2)cc1)[C@H](C(=O)O)C(C)C` .
4

Check the records and state Population Hoechst High Intensity Objects (%) for Cc1ccc(C(C)(O)c2nc3ccccc3s2)c(C)c1 (stereo not given)
7

Recall and state the measured Population Hoechst High Intensity Objects (%) for `COc1cc2ncnc(Nc3ccc(Oc4ccccc4)cc3C)c2cc1OC.Cl` .
0

Note Population Hoechst High Intensity Objects (%) for the compound shown: `C=C(C)[C@H]1CN[C@H](C(=O)O)[C@H]1CC(=O)O`
0

Quickly give me recorded Population Hoechst High Intensity Objects (%) for `O=C1NCc2ccc3c(-c4cccc(Cl)c4)c[nH]c3c21`
0

Identify measured Population Hoechst High Intensity Objects (%) corresponding to `Cn1cnc(-c2cnc(O[C@H]3CCN(C(=O)Cc4ccc(OC(F)(F)F)cc4)C[C@H]3F)c(C(N)=O)c2)c1`
0

Retrieve Population Hoechst High Intensity Objects (%) measured for `S=c1[nH]nc(-c2cccs2)n1-c1ccccc1` and print it.
0

Fill in reported Population Hoechst High Intensity Objects (%) for this entry: `CC(C)c1ccc(/C=N/NC(=O)c2ccc(O)cc2)cc1`
0

Indicate its recorded Population Hoechst High Intensity Objects (%); the compound in question is `CCN1CCN(Cc2ccc(Nc3ncc(F)c(-c4cc(F)c5nc(C)n(C(C)C)c5c4)n3)nc2)CC1.CS(=O)(=O)O`
0

All figures here come from ChEMBL document CHEMBL5724801.
